Every entry's value here was drawn from patent US20050137242A1.

Counter-ions that a name gives are not always drawn.
Quantity measured: melting point

>>> endpoint_value("COc1ccc(-c2ncn(CCC(C)(C)NCC(O)c3ccc(O)c4c3OCC(=O)N4)n2)cc1 (stereo not shown) (as salt: hydrochloride)")
"175 to 179 °C"
>>> endpoint_value("CCCCOc1ccc(CC(C)(C)NCC(O)c2ccc(O)c3c2OCC(=O)N3)cc1 (stereo not shown) (as salt: methanesulfonate)")
"189 to 190 °C"
>>> endpoint_value("COc1ccc(CC(C)(C)NCC(O)c2ccc(O)c3c2OCC(=O)N3)cc1 (stereo not shown) (as salt: hydrochloride)")
"202 to 205 °C"

For COc1ccc(CNc2cc(C(O)CNC(C)(C)CCn3cnc4ccccc43)ccc2O)cc1 (stereo not shown) (as salt: acetate) , write its melting point. 154 to 155 °C
